These data points were gathered from paper PMC9502897.

test system: MT-4 cells; test: in vitro; conditions: human, 5 days

molecule	CC50
COc1ccc(N(C)C(=O)[C@H](Cc2cc(F)cc(F)c2)NC(=O)CN(Cc2ccc(C#N)cc2)C(=O)Cc2ccc3ccccc3c2)cc1 [I-13]	> 189 µM
COc1ccc(N(C)C(=O)[C@H](Cc2cc(F)cc(F)c2)NC(=O)CN(Cc2ccc(F)cc2)C(=O)Cc2ccc3ccccc3c2)cc1 [I-6]	> 160 µM
COc1ccc(N(C)C(=O)[C@H](Cc2cc(F)cc(F)c2)NC(=O)CN(Cc2ccc(C#N)cc2)C(=O)Cc2cccc3ccccc23)cc1 [I-14]	> 189 µM
COc1ccc(N(C)C(=O)[C@H](Cc2cc(F)cc(F)c2)NC(=O)CN(Cc2ccc(F)cc2)C(=O)Cc2cccc3ccccc23)cc1 [I-8]	> 191 µM
